tested on: Pseudomonas aeruginosa E-2; test: Effect on treatment of general infectious disease, P. aeruginosa E-2 (Experiment 3); format: in vivo, ddY male mice infected with Pseudomonas aeruginosa; conditions: E2, 168 h, oral, 1 h after i.p. infection, 3.1×10^4 CFU/mouse, survival after one week
Where a name gives a salt, the structure may show the parent alone.
Endpoint: ED50 (mg/kg)
Express your answer in mg/kg, writing the number without its unit.

Compound	ED50, mg/kg
CN1CCN(c2c(F)cc3c(=O)c(C(=O)O)c4scc5n4c3c2OC5)CC1 [Compound (Y), hydrochloride, reference compound]	11.7
CN1CCN(c2c(F)cc3c(=O)c(C(=O)O)c4scc5n4c3c2N(C)C5)CC1	10.2
CC1COc2c(N3CCN(C)CC3)c(F)cc3c(=O)c(C(=O)O)cn1c23 (stereo not shown) [Compound (X), reference compound]	14

Proceed to the following item.
// field: ED50; key: `CCN1CCN(c2c(F)cc3c(=O)c(C(=O)O)c4scc5n4c3c2N(C)C5)CC1` ; value = 6.8
